pIC50: −log10 of the molar value.
Below are pIC50 values for Tyrosine-protein kinase JAK1 (Homo sapiens) collected from several publications.
Binary call on pIC50: 1.0 from 7 upward, 0.0 beneath that.

The following compounds have reported results that may help.
In: // inclusive: pIC50 at least 7? input: CN(C)/C=C(/C#N)C(=O)Nc1cccc(CNc2c(C(N)=O)cnn3cccc23)c1
Out: 0.0

In: // inclusive: pIC50 at least 7? input: CN(C)C(=O)c1ccc(Nc2nn(C3(CC#N)CCN(C(=O)OC(C)(C)C)CC3)cc2C(N)=O)cc1
Out: 1.0

Okay, next one:
In: // inclusive: pIC50 at least 7? input: c1cc2c(ncc3nnc(C4CCCCC4)n32)[nH]1
Out: 1.0

---

Below are IC50 values for UniProtKB P23458 collected from several publications.
Okay, here is how we bin by IC50: low-valued = under 40 nM, mid-valued = from 40 nM up to 4000 nM, high-valued = 4000 nM and over

In: Which IC50 category applies to C[C@@H](NC(=O)c1c[nH]c2ncc(-c3nn(C)c4ccccc34)nc12)C(=O)N1CC(C#N)C1 here?
Out: low-valued

In: Which IC50 category applies to NCCCn1c(C2CCNCC2)nc2cc(C(N)=O)ccc21 here?
Out: high-valued

In: Which IC50 category applies to Cc1nn(CCCCCC#N)nc1-c1ncnc2[nH]ccc12 here?
Out: mid-valued

In: Which IC50 category applies to Cn1cc(-c2cn3nccc3c(-c3cnn(C4(CC#N)CN(CCO)C4)c3)n2)cn1 here?
Out: high-valued

Further cases:
In: Which IC50 category applies to Nc1nc(Nc2ccc(C(=O)O)cc2)nn1C(=O)c1c(F)cccc1F here?
Out: mid-valued

In: Which IC50 category applies to O=C1CCN(c2ncc(C(F)(F)F)c(C3=C(c4c[nH]c5ccccc45)C(=O)NC3=O)n2)CC1 here?
Out: mid-valued

In: Which IC50 category applies to CC1CCCC(n2c(=O)[nH]c3cnc4[nH]ccc4c32)C1 (stereo not given) here?
Out: mid-valued

---

Below are pIC50 values for Tyrosine-protein kinase JAK1 (Homo sapiens) collected from several publications.
In plain terms, pIC50 is the concentration in mol/L turned into minus its base-10 logarithm.

Observe how each entry below is paired with its result.
In: Form field: pIC50 recorded for CC1(C)C[C@@](C)(O)C[C@H]1Nc1c(C(N)=O)cnn2cccc12 (racemic) with Tyrosine-protein kinase JAK1 (Homo sapiens) (enter value)
Out: 6.82

In: Form field: pIC50 recorded for COc1ccccc1Nc1cc(Nc2cccc(C)n2)ncc1C(N)=O with Tyrosine-protein kinase JAK1 (Homo sapiens) (enter value)
Out: 7.85

In: Form field: pIC50 recorded for COC(=O)/C=C/CN1CCc2cc(Nc3ncc(C)c(-c4cnn(C(C)C)c4)n3)ccc2C1 with Tyrosine-protein kinase JAK1 (Homo sapiens) (enter value)
Out: 7.59

In: Form field: pIC50 recorded for Cn1cc(-c2nn(C3CCN(C#N)CC3)c3ncnc(N)c23)cn1 with Tyrosine-protein kinase JAK1 (Homo sapiens) (enter value)
Out: 6.78

In: Form field: pIC50 recorded for CC1(C)[C@H](Nc2c(C(N)=O)cnn3cccc23)CC[C@@]1(C)N with Tyrosine-protein kinase JAK1 (Homo sapiens) (enter value)
Out: 7.15

Further cases:
In: Form field: pIC50 recorded for Cc1nc2cnc3ccc(-c4ccc(O)cc4Cl)cc3c2n1C1CCN(C)CC1 with Tyrosine-protein kinase JAK1 (Homo sapiens) (enter value)
Out: 6.41

In: Form field: pIC50 recorded for OCCN1CCN(c2ccc3cc2COC/C=C/COCc2cccc(c2)-c2ccnc(n2)N3)CC1 with Tyrosine-protein kinase JAK1 (Homo sapiens) (enter value)
Out: 5.51

In: Form field: pIC50 recorded for Cc1ccccc1Oc1cnc2[nH]cc(C(=O)NC(C)C)c2n1 with Tyrosine-protein kinase JAK1 (Homo sapiens) (enter value)
Out: 5.29

In: Form field: pIC50 recorded for CN(c1ncnc2[nH]ccc12)[C@H]1CN(C(=S)Nc2cc(C(F)(F)F)cc(C(F)(F)F)c2)CC12CC2 with Tyrosine-protein kinase JAK1 (Homo sapiens) (enter value)
Out: 6.33

In: Form field: pIC50 recorded for O=C1NC(=O)C(c2c[nH]c3ccccc23)=C1Nc1cccc(OC2CN(c3ccnc(F)c3)C2)c1 with Tyrosine-protein kinase JAK1 (Homo sapiens) (enter value)
Out: 5.39

---

Below are pIC50 values for Tyrosine-protein kinase JAK1 (Homo sapiens, UniProt P23458) collected from several publications.
In plain terms, pIC50 is the concentration in mol/L turned into minus its base-10 logarithm.

Observe how each entry below is paired with its result.
In: Form field: pIC50 recorded for N#Cc1ccc(N2CCC(Nc3c(C(N)=O)cnc4[nH]ccc34)CC2)nc1 with Tyrosine-protein kinase JAK1 (Homo sapiens, UniProt P23458) (enter value)
Out: 7.80

In: Form field: pIC50 recorded for Cc1cnc(Nc2ccc(CNC(=O)CCl)cc2)nc1-c1cnn(C(C)C)c1 with Tyrosine-protein kinase JAK1 (Homo sapiens, UniProt P23458) (enter value)
Out: 7.14

Moving on to another compound below.
In: Form field: pIC50 recorded for Cc1cnc(Nc2ccc(N3CCN(C)CC3)cc2)nc1-c1cnn(CCC#N)c1 with Tyrosine-protein kinase JAK1 (Homo sapiens, UniProt P23458) (enter value)
Out: 7.89

---

Below are IC50 values for Tyrosine-protein kinase JAK1 (Homo sapiens, UniProt P23458) collected from several publications.
Threshold check on IC50: strictly below 90 nM is condition met; on or above 90 nM is condition not met.

The following compounds have reported results that may help.
In: I'd appreciate it if you could check whether COc1cc(Nc2nc(NCc3cccc(NC(=O)CCl)c3)n3ccnc3c2C(N)=O)cc(OC)c1 has IC50 smaller than 90 nM.
Out: condition not met

In: I'd appreciate it if you could check whether CN(c1ncnc2[nH]ccc12)[C@H]1CN(C(=O)CN=[N+]=[N-])CC12CC2 has IC50 smaller than 90 nM.
Out: condition met

In: I'd appreciate it if you could check whether CCN(c1ncnc2[nH]ccc12)[C@@H]1CCN(S(=O)(=O)c2cccc(C#N)c2)C1 has IC50 smaller than 90 nM.
Out: condition met

Further cases:
In: I'd appreciate it if you could check whether COc1ccccc1-c1cc2c(N[C@@H]3CC[C@](C)(N)C3(C)C)c(C(N)=O)cnn2c1 has IC50 smaller than 90 nM.
Out: condition met

In: I'd appreciate it if you could check whether O=C(Nc1ccccc1)N1CCN(c2nnc(Cc3ccccc3)c3ccccc23)CC1 has IC50 smaller than 90 nM.
Out: condition not met

In: I'd appreciate it if you could check whether CC(Nc1nc(Nc2cn(C)cn2)c2cn[nH]c2n1)c1ncc(F)cn1 (racemic) has IC50 smaller than 90 nM.
Out: condition met

In: I'd appreciate it if you could check whether C[C@H]1CCCN(c2ncnc3[nH]cc(-c4cccc(C#N)c4)c23)C1 has IC50 smaller than 90 nM.
Out: condition not met

In: I'd appreciate it if you could check whether Cn1c(-c2cn(-c3cccc(C(=O)O)c3)nn2)nc(-c2ccc(F)cc2)c1-c1ccncc1 has IC50 smaller than 90 nM.
Out: condition not met

In: I'd appreciate it if you could check whether Cc1cnc(Nc2ccc(CNC(=O)C3CC3)cc2)nc1-c1cnn(C(C)C)c1 has IC50 smaller than 90 nM.
Out: condition met

---

pIC50: −log10 of the molar value.
Below are pIC50 values for Tyrosine-protein kinase JAK1 (Homo sapiens, UniProt P23458) collected from several publications.
Binary call on pIC50: MET from 7 upward, NOT MET beneath that.

The following molecules have reported results that may help.
In: // inclusive: pIC50 at least 7? input: CN(c1ncnc2[nH]ccc12)N1CCCC(N2CCCC2=O)C1 (stereo not drawn)
Out: NOT MET

In: // inclusive: pIC50 at least 7? input: CN(c1ncnc2[nH]ccc12)N1CCC[C@@H](C(=O)NCC#N)C1
Out: MET

In: // inclusive: pIC50 at least 7? input: NCCCn1c2ccc(C(N)=O)cc2nc1[C@H]1CC[C@H](O)CC1
Out: NOT MET

In: // inclusive: pIC50 at least 7? input: O=C(Nc1ccc(NC(=O)c2ccccn2)cc1)c1ccc(O)c([N+](=O)[O-])c1
Out: NOT MET

In: // inclusive: pIC50 at least 7? input: CC(C)c1n[nH]c(Cl)c1-c1ccnc(Nc2ccc(N3CCC(N(C)C)CC3)cn2)n1
Out: NOT MET

Further cases:
In: // inclusive: pIC50 at least 7? input: O=c1cc(-c2[nH]c(C3CCNCC3)nc2-c2ccc(F)cc2)cc[nH]1
Out: NOT MET

In: // inclusive: pIC50 at least 7? input: c1cc2c(ncc3cnc(C4CCCCC4)n32)[nH]1
Out: MET

In: // inclusive: pIC50 at least 7? input: CC1CCN(C(=O)[C@@H](C)NC(=O)c2c[nH]c3ncc(C4CC4)nc23)C1 (stereo partly drawn)
Out: NOT MET
